Entry source: ChEMBL document CHEMBL2424547

target: 11-beta-hydroxysteroid dehydrogenase 1 (Homo sapiens); experiment: Inhibition of human 11beta-HSD1 expressed in HEK293 cells assessed as [1,2-3H]-cortisone reduction […] after 10 mins in presence of NADPH; assay type: cell-based; settings: read-out: IC50
# label = criterion met if IC50 < 6 µM else criterion not met

>>> category("COc1ccc(S(=O)(=O)N2CCN(c3nc4ccccc4n3C)CC2)cc1OC")
"criterion not met"
>>> category("Cc1ccc(S(=O)(=O)N2CCN(c3nc4ccccc4n3C)CC2)cc1")
"criterion met"

QUERY: Is IC50 strictly under 6 µM for the entry COc1ccc(S(=O)(=O)N2CCN(c3nc4ccccc4n3C)CC2)cc1[N+](=O)[O-] ?
RESULT: criterion not met

====

target: 11-beta-hydroxysteroid dehydrogenase 1 (Homo sapiens, UniProt P28845); experiment: Inhibition of human 11beta-HSD1 expressed in HEK293 cells assessed as [1,2-3H]-cortisone reduction […] after 10 mins in presence of NADPH; type: cell-based; conditions: read-out: IC50
Sequence (P28845 whole entry): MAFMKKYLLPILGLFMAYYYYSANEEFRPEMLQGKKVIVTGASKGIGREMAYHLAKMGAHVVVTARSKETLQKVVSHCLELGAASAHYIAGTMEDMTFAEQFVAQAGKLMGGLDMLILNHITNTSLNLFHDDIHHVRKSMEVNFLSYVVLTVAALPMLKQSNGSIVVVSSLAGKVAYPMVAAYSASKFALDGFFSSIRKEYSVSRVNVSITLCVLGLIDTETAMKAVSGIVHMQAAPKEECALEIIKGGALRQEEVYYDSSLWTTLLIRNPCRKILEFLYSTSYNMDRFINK
ASSAY_READOUT: IC50 (µM)
API: value field is a number in µM; no unit string.

# annotated cases, reported IC50 shown
>>> value_observed("COc1ccc(S(=O)(=O)N2CCN(c3nc4ccccc4n3C)CC2)cc1")
4.2
>>> value_observed("Cn1c(N2CCN(S(=O)(=O)c3ccccc3)CC2)nc2ccccc21")
6.4

QUERY: What value of IC50 has been recorded for this entry: Cn1c(N2CCN(S(=O)(=O)c3ccc(C(C)(C)C)cc3)CC2)nc2ccccc21
RESULT: 4.8
